B1: DnaJ homolog subfamily C member 5, residues 16 to 77; numbered along this chain, Q9H3Z4 (parent)
chain: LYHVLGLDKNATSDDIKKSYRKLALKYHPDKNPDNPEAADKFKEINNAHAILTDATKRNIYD

Variants of: B1
Assay overview: abundance fitness (aPCA) (normalised: wild type 0, dead -1); higher = more abundant; growth selection in yeast, the domain comes from the species named
Experimental context: Homo sapiens
Please provide measured abundance fitness for the entries that follow.
One number for each entry.

A selection of reference data follows.
D8Y
-0.421
Y20G
-0.189
D15S
-0.382
I60Q
0.168
I60R
0.08

Give abundance fitness for each listed item.
1. D14H
2. E44S

Response:
1: -0.394; 2: -0.3

Give abundance fitness for each listed item.
1. D15H
2. N35C
3. F42E
4. L52F

Response:
1: -0.679; 2: -0.462; 3: -0.192; 4: -0.295
